Numbers sourced from the supplement of paper PMC10065799.

Each entry below lists one item and its recorded phosphorylation enrichment value.
- TARGET_ENTITY: Hck (UniProt P08631)
- Sequence (P08631 whole entry, looked up): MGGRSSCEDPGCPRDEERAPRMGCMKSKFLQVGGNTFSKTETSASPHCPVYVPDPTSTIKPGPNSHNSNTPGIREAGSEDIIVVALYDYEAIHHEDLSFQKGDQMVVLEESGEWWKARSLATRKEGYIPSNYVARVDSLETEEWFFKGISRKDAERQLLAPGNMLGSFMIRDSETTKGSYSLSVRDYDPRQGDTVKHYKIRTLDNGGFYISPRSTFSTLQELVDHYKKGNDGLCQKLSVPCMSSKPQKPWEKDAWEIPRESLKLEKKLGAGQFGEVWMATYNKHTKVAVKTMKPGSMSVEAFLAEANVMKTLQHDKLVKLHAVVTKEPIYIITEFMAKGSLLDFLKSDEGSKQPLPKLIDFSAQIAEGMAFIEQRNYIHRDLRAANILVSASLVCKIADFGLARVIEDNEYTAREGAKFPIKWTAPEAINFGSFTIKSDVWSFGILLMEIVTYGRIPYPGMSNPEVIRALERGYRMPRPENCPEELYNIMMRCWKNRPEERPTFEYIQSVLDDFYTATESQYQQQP
- TEST: phosphorylation enrichment, bacterial display (enrichment ratio); higher = better substrate or ligand; peptides without Tyr show the background
Give only the figure.

Example entries and their recorded answers appear below.
>  <POLYMER_SEQUENCE>
RKKEEYKMALY [F8_Y1990]

>  <EXPERIMENTAL_RESULT>
1.05

$$$$
>  <POLYMER_SEQUENCE>
LLIVEYAKYGS [RET_Y806]

>  <EXPERIMENTAL_RESULT>
0.759

$$$$

# sequence RPDSPYSRPHD [DOK2_Y271] ; its phosphorylation enrichment = 0.367

# sequence YAREGYSALPQ [SARS2_Y52] ; its phosphorylation enrichment = 0.58

# sequence RPFVFYFSFLL [PTEN_Y177_R173P_YF] ; its phosphorylation enrichment = 0.867

# sequence VVPGSYDRLRV [IFT172_Y260_L257P] ; its phosphorylation enrichment = 0.486

# sequence FTTIHYNFMCN [TP53_Y234_C229Y_YF] ; its phosphorylation enrichment = 0.63

# sequence LDTSQYFRLFN [CPT2_Y217_M214T] ; its phosphorylation enrichment = 0.61

# sequence RRGTGYTLSLP [MAGEC3_Y152] ; its phosphorylation enrichment = 0.693

---

- TARGET_ENTITY: Grb2 SH2 (UniProt P62993)
- Sequence (P62993 whole entry, looked up): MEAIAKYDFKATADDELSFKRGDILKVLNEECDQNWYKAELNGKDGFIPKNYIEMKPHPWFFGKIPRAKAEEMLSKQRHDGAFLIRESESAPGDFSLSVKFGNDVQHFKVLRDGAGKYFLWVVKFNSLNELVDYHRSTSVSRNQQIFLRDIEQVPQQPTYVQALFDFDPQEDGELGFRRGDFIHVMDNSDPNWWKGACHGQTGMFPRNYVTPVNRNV
- TEST: SH2 binding enrichment of the phosphorylated peptide, bacterial display (enrichment ratio); higher = better substrate or ligand; peptides without Tyr show the background
Returns one of condition met or condition not met; condition met when SH2 binding enrichment is >= 0.8.

Record excerpt, results attached:
>  <POLYMER_SEQUENCE>
EMFNPYFGLFE [NEDD4L_Y679_YF]

>  <DISCRETE_LABEL>
condition met

$$$$
>  <POLYMER_SEQUENCE>
LSNPAYRLLLA [DDR1_Y513]

>  <DISCRETE_LABEL>
condition met

$$$$
>  <POLYMER_SEQUENCE>
KLSFSYGRALQ [ALDOB_Y302]

>  <DISCRETE_LABEL>
condition met

$$$$
>  <POLYMER_SEQUENCE>
AEEEIYGEFEA [Src_opt_1995]

>  <DISCRETE_LABEL>
condition not met

$$$$
>  <POLYMER_SEQUENCE>
DEEFEYMNRRR [ERBB3_Y1199_YF]

>  <DISCRETE_LABEL>
condition met

$$$$

// query Hi, just wondering whether CFTRQYTLPPG [HSPB1_Y142_K141Q] shows SH2 binding enrichment of 0.8 or higher.
// result condition not met

// query Hi, just wondering whether GKMPQYLESMQ [CYB5R3_Y130_S128P] shows SH2 binding enrichment of 0.8 or higher.
// result condition met

// query Hi, just wondering whether AFSLKYEQQTQ [SYTL4_Y366] shows SH2 binding enrichment of 0.8 or higher.
// result condition met

// query Hi, just wondering whether SRLDSYVRSLP [TRAPPC1_Y133] shows SH2 binding enrichment of 0.8 or higher.
// result condition not met

// query Hi, just wondering whether AKVKPYINGTS [IBTK_Y1064_V1065I] shows SH2 binding enrichment of 0.8 or higher.
// result condition met

// query Hi, just wondering whether ADLLVYIKALN [HPRT1_Y81_D80V] shows SH2 binding enrichment of 0.8 or higher.
// result condition met

// query Hi, just wondering whether SSEFHCVGGFF [CTSC_Y347_Y347C_YF] shows SH2 binding enrichment of 0.8 or higher.
// result condition met

---

- Tested on: Fer (mouse)
- TEST: phosphorylation enrichment, bacterial display (enrichment ratio); higher = better substrate or ligand; peptides without Tyr show the background
Each entry below lists one item and its recorded phosphorylation enrichment value.

Example entries and their recorded answers appear below.
>  <POLYMER_SEQUENCE>
DHAGEYGAEAL [HBA1_Y25_A20D]

>  <phosphorylation enrichment>
0.403

$$$$
>  <POLYMER_SEQUENCE>
NACGLYHKMNG [GATA5_Y216]

>  <phosphorylation enrichment>
0.673

$$$$
>  <POLYMER_SEQUENCE>
EEKSCYILHSS [PATJ_Y783_E780K]

>  <phosphorylation enrichment>
0.622

$$$$
>  <POLYMER_SEQUENCE>
PHMQTYEVDPN [SDHB_Y61_L65P]

>  <phosphorylation enrichment>
0.758

$$$$
>  <POLYMER_SEQUENCE>
GCRSKYVRLWG [KCNQ1_Y184_G186R]

>  <phosphorylation enrichment>
0.472

$$$$

# phosphorylation enrichment measured on Fer (mouse) for item AERKLYRNVML [ZNF569_Y33_Q29E] = 0.359

# phosphorylation enrichment measured on Fer (mouse) for item QKTGDYFDLFG [PTPN11_Y62_N58K_YF] = 0.434

---

Each entry below lists one item and its recorded phosphorylation enrichment value.
- TARGET_ENTITY: Jak2 (UniProt O60674)
- Sequence (O60674 whole entry, looked up): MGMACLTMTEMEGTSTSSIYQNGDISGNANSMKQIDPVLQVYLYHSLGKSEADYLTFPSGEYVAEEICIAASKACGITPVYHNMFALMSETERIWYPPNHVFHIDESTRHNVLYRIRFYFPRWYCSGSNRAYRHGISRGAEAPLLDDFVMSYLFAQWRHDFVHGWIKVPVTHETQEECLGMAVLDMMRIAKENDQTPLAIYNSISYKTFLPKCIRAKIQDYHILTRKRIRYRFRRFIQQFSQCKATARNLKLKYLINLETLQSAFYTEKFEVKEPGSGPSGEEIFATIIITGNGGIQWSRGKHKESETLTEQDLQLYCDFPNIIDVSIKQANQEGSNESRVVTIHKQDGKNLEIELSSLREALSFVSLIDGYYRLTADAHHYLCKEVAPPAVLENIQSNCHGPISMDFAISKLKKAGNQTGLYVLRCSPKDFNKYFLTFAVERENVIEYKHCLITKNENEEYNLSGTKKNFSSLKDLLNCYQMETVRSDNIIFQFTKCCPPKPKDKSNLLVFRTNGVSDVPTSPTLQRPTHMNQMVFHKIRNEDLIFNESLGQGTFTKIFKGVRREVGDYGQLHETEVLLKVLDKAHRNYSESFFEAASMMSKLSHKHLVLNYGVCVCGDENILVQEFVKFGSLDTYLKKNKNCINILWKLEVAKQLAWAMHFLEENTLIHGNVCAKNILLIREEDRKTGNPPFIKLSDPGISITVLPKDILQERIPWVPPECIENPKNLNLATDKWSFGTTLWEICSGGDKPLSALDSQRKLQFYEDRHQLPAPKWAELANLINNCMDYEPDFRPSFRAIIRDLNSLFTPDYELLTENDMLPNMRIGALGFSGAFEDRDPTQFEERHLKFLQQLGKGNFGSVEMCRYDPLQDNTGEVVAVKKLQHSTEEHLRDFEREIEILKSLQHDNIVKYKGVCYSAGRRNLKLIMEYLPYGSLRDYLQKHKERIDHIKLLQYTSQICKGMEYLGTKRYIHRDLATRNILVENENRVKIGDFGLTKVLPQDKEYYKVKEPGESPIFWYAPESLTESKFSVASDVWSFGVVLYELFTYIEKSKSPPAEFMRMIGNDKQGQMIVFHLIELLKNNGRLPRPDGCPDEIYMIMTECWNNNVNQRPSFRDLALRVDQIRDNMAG
- TEST: phosphorylation enrichment, bacterial display (enrichment ratio); higher = better substrate or ligand; peptides without Tyr show the background

# sequence NACGLYHKMNG [GATA5_Y216] ; its phosphorylation enrichment = 0.798

# sequence KLIETYSSKNF [PLP1_Y50_F51S_YF] ; its phosphorylation enrichment = 0.59

# sequence NHFKIYNLFAE [PTEN_Y68_C71Y_YF] ; its phosphorylation enrichment = 0.612

# sequence HDRGNYVQLNM [RECQL4_Y353_R355Q] ; its phosphorylation enrichment = 0.55

# sequence KDHPDYKFQRR [SOX10_Y171_P175R_YF] ; its phosphorylation enrichment = 0.615

# sequence ANAYIYVVQLP [L1CAM_Y420] ; its phosphorylation enrichment = 1.14

# sequence RAYRRYLLKQK [SCN2A_Y1919] ; its phosphorylation enrichment = 0.486

---

Each entry below lists one item and its recorded phosphorylation enrichment value.
- TARGET_ENTITY: Fes (UniProt P07332)
- Sequence (P07332 whole entry, looked up): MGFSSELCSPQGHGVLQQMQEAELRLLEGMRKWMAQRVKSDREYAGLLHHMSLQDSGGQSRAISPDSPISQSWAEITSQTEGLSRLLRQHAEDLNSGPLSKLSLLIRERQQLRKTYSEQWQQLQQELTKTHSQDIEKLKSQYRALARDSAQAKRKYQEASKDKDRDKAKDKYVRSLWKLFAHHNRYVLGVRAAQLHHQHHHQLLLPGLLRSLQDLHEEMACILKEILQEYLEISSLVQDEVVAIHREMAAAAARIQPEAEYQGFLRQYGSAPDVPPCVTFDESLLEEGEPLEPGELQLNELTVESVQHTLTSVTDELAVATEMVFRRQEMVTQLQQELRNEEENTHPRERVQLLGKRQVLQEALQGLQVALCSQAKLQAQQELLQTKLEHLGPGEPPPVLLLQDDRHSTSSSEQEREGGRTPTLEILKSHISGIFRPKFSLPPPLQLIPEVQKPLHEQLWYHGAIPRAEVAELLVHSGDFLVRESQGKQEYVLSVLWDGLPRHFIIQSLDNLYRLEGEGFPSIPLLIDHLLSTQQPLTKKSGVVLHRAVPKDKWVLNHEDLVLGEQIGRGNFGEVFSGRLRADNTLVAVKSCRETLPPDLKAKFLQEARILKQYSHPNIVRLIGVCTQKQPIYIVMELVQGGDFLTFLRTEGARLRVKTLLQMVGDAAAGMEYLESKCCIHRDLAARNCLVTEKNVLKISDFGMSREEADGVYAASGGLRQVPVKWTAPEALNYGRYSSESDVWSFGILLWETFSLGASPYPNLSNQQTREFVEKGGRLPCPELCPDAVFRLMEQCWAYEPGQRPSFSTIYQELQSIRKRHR
- TEST: phosphorylation enrichment, bacterial display (enrichment ratio); higher = better substrate or ligand; peptides without Tyr show the background
Give only the figure.

>  <POLYMER_SEQUENCE>
VAFLYYKSIGP [ADGRL4_Y302_V300L]

>  <phosphorylation enrichment>
1.54

$$$$
>  <POLYMER_SEQUENCE>
IKAGAYDFPSL [CAMK2A_Y230_P235L]

>  <phosphorylation enrichment>
0.647

$$$$

# sequence LDTSQYFRLFN [CPT2_Y217_M214T] ; its phosphorylation enrichment = 0.784

# sequence GITTGYLVLKE [DNMT3B_Y588_A585T] ; its phosphorylation enrichment = 0.797

# sequence AGIENYTSRFG [NKD2_Y256] ; its phosphorylation enrichment = 0.719

---

- TARGET_ENTITY: FGFR1 (UniProt P11362)
- Sequence (P11362 whole entry, looked up): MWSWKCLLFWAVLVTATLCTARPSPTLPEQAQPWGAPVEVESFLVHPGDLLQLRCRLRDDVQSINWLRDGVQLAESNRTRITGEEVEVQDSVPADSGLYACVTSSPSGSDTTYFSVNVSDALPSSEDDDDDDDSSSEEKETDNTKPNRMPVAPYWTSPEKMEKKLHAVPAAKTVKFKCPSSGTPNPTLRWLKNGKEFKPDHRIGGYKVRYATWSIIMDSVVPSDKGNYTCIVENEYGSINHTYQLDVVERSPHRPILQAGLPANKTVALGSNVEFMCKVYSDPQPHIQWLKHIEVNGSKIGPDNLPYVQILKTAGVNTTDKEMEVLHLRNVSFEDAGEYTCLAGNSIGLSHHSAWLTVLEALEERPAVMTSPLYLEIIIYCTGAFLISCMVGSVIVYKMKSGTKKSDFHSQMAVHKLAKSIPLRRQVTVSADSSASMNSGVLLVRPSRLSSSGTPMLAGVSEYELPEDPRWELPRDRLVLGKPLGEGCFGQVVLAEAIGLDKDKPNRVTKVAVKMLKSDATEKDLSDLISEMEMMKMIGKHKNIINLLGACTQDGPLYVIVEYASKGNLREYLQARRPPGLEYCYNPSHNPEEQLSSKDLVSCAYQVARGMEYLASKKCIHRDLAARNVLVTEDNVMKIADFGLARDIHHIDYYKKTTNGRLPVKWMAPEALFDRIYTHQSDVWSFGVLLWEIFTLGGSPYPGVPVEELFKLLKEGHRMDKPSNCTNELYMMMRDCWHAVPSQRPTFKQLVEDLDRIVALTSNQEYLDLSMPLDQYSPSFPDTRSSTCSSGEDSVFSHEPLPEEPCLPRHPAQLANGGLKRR
- TEST: phosphorylation enrichment, bacterial display (enrichment ratio); higher = better substrate or ligand; peptides without Tyr show the background
Returns one of true or false; true when phosphorylation enrichment is >= 0.5.

>  <POLYMER_SEQUENCE>
NVADHYGVFKP [ATP6V0D2_Y271_YF]

>  <DISCRETE_LABEL>
false

$$$$

// query Hi, just wondering whether SKKSTYRALLD [GANC_Y43_Q44R] shows phosphorylation enrichment of 0.5 or higher.
// result false

// query Hi, just wondering whether AFPVSYSSSGA [RET_Y687] shows phosphorylation enrichment of 0.5 or higher.
// result false

// query Hi, just wondering whether ALRHFYKLNII [ETV6_Y402_YF] shows phosphorylation enrichment of 0.5 or higher.
// result false

// query Hi, just wondering whether NHFKIYNLFAE [PTEN_Y68_C71Y_YF] shows phosphorylation enrichment of 0.5 or higher.
// result true

---

- TARGET_ENTITY: FGFR3 (UniProt P22607)
- Sequence (P22607 whole entry, looked up): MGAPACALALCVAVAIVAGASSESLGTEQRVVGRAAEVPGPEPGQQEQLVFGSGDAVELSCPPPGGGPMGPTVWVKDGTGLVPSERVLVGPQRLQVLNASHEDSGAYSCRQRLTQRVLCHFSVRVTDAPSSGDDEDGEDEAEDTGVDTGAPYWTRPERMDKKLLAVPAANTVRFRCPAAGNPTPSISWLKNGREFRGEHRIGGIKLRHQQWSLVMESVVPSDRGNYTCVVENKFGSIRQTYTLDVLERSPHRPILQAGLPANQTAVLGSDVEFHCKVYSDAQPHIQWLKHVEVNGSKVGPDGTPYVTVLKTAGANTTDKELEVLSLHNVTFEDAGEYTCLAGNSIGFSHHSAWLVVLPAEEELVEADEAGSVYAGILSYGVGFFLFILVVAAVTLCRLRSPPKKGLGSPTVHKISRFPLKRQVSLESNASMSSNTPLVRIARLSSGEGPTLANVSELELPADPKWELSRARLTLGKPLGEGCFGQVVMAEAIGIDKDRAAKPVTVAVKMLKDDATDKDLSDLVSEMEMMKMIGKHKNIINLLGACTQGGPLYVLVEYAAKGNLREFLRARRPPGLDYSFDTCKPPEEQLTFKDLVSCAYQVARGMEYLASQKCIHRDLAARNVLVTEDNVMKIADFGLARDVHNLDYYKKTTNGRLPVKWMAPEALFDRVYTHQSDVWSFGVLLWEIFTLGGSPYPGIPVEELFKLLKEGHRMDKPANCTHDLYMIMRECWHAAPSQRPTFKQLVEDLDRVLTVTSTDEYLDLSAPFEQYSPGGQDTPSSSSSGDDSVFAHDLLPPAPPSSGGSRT
- TEST: phosphorylation enrichment, bacterial display (enrichment ratio); higher = better substrate or ligand; peptides without Tyr show the background
PROPERTY_LABEL: phosphorylation enrichment

Example entries and their recorded answers appear below.
>  <POLYMER_SEQUENCE>
FLEKFYKFGSR [NNMT_Y25_YF]

>  <PROPERTY_LABEL>
phosphorylation enrichment

>  <EXPERIMENTAL_RESULT>
0.548

$$$$
>  <POLYMER_SEQUENCE>
VKALKYKSMKI [ITGA11_Y1098_L1093V]

>  <PROPERTY_LABEL>
phosphorylation enrichment

>  <EXPERIMENTAL_RESULT>
0.405

$$$$
>  <POLYMER_SEQUENCE>
VFGVSYDEFRF [CFTR_Y512_I507V_YF]

>  <PROPERTY_LABEL>
phosphorylation enrichment

>  <EXPERIMENTAL_RESULT>
0.736

$$$$
>  <POLYMER_SEQUENCE>
KSMFVYCTPNK [ATP2A2_Y497_S495F]

>  <PROPERTY_LABEL>
phosphorylation enrichment

>  <EXPERIMENTAL_RESULT>
0.768

$$$$
>  <POLYMER_SEQUENCE>
SHKELYKWFTS [DYNC1H1_Y3051_E3048K]

>  <PROPERTY_LABEL>
phosphorylation enrichment

>  <EXPERIMENTAL_RESULT>
0.501

$$$$
>  <POLYMER_SEQUENCE>
MACDRYVAICS [OR8D4_Y123]

>  <PROPERTY_LABEL>
phosphorylation enrichment

>  <EXPERIMENTAL_RESULT>
0.503

$$$$

# sequence ILTYKYLQIPM [KIT_Y547_K550I] ; its phosphorylation enrichment = 0.807

# sequence CNSFRYGGGGG [NPPA_Y151] ; its phosphorylation enrichment = 0.469

# sequence SVVVPYEPAEV [TP53_Y220_P223A] ; its phosphorylation enrichment = 0.719

# sequence LEAFQYIGESQ [MSH2_Y856_E853A] ; its phosphorylation enrichment = 0.938

# sequence EATKVYLDDPT [G6PD_Y322_G321V] ; its phosphorylation enrichment = 0.656

# sequence SSEFHCVGGFF [CTSC_Y347_Y347C_YF] ; its phosphorylation enrichment = 0.619

# sequence SKEPFYVHCIK [MYO1D_Y586_R588H_YF] ; its phosphorylation enrichment = 0.682

# sequence EQKKYYNATKK [SCN5A_Y1495_M1498T] ; its phosphorylation enrichment = 0.387

# sequence EEHIPCTHMNG [INSR_Y1361_Y1361C] ; its phosphorylation enrichment = 0.632

# sequence GLRQGYFVEAQ [APCS_Y142] ; its phosphorylation enrichment = 0.637

# sequence SPPEVYAIMRG [NTRK1_Y757_C752S] ; its phosphorylation enrichment = 0.524

# sequence REIHDYIKHLG [UNC13C_Y308_D304E] ; its phosphorylation enrichment = 0.741

# sequence LTDLRYKVSGP ; its phosphorylation enrichment = 1.13

# sequence SVVVLYEPPEV [TP53_Y220_P219L] ; its phosphorylation enrichment = 0.738

# sequence TDGIAYEFRVI ; its phosphorylation enrichment = 0.852

# sequence LTSKPYAFTAW [NDUFS1_Y236_R241W] ; its phosphorylation enrichment = 0.511

# sequence RGRSTYYWPSP [GAGE12J_Y9_R13S] ; its phosphorylation enrichment = 1.01
